- tested_target: Alpha-bungarotoxin (Bungarus multicinctus) (UniProt P60615)
- Sequence (P60615 whole entry, looked up): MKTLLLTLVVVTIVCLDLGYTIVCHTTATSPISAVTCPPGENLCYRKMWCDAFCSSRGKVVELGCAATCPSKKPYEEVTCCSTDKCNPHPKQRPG
- assay_overview: alpha-bungarotoxin binders on microarray, profiling panel, artefact control for SMM control protein annotation, biochemical, small-molecule microarray, Alexa647 label, 635/667 nm fluorescence (AID 1117)
- assay_conditions: alpha-BTX-A647 binding fluorescence, higher = more signal
// classify(record): look up composite z-score in ranges lower level = under -0.2, middle level = from -0.2 up to 0.3, upper level = 0.3 and over

| compound | class_name |
| --- | --- |
| Cc1cc2c(nc1C)CCCCN2CC(C)ON=C1[C@H]2CCn3c(=O)n(-c4ccccc4)c(=O)n3[C@H]2[C@H](O)[C@@H]2O[C@H]12 (stereo partly specified) | upper level |
| CCc1cc2c(nc1CC)CCN(CCC(C)=NO[C@H](C)c1cn([C@H](CO)Cc3ccccc3)nn1)C2 | upper level |
| CC(C)(C)N1C(=O)[C@H]2[C@H]3[C@H](O)C=CC(=O)[C@@H]3CC[C@H]2C1=O | middle level |
| COC(=O)CC=C[C@@H](C)[C@@H](C=NOCC[C@@H]1C=C[C@H](OC(C)=O)[C@@H](COC(C)=O)O1)NS(=O)(=O)c1ccc(C)cc1 | middle level |
| COC(=O)CC=C[C@@H](C)[C@@H](C=NOC[C@H]1O[C@H](c2ccccc2)C=C[C@@H]1Oc1ccc(OC)cc1)NS(=O)(=O)c1ccc(C)cc1 | middle level |
| O=c1n(Cc2cc3c(cc2Cl)OCO3)c(=O)n2n1CC[C@@H]1C(=NOC[C@@H](O)COCc3ccco3)[C@H]3O[C@H]3[C@@H](O)[C@@H]12 | upper level |
| CCCCC#C[C@@H]1C=C[C@H](Oc2cc(OC)c(OC)c(OC)c2)[C@@H](COC(=O)OCC)O1 | upper level |
| COc1ccc(O[C@@H]2[C@H](O)CO[C@@H]2C=Cc2ccccc2)cc1 | upper level |
| CO[C@H]1COC(=O)CC=C[C@@H](C)[C@H](OC)COC(=O)[C@@H]2CCCN2C(=O)CC=C[C@@H]1C | lower level |
| CC(C)=CCCC(C)=CCON=C1C[C@@H](O)[C@@H](O)[C@@H]2[C@@H]3C(=O)N(C4CCCCC4)C(=O)[C@@H]3CC[C@@H]12 | middle level |
| CC(CCN1CCCCc2nc(C)c(C)cc21)=NO[C@H](C)c1cn([C@H](CO)Cc2ccccc2)nn1 | lower level |
| CON=C1[C@H]2CCn3c(=O)n(-c4ccccc4)c(=O)n3[C@H]2[C@H](O)[C@@H]2O[C@H]12 | middle level |
| COc1cccc([C@H]2Oc3ccc(OC)cc3C(=NO[C@@H](C)c3cn([C@H](CO)Cc4ccccc4)nn3)[C@@H]2O)c1 | lower level |
| C=Cc1ccc([C@H]2N[C@H](C(=O)O)CC[C@@H]2C)cc1 | middle level |
| CO[C@@H]1COC(=O)CC=C[C@@H](C)[C@H](OC)COC(=O)[C@@H](C)COC(=O)CC=C[C@H]1C | lower level |
| CO[C@@H]1COC(=O)CC=C[C@H](C)[C@H](OC)COC(=O)[C@H](C)NC(=O)CC=C[C@H]1C | lower level |

====

Reported composite z-score by item:
- assay_overview: binders of probe aFST on microarray, primary screen, stem cell growth factor project, biochemical, small-molecule microarray, fluorescence 635/667 (AID 1086);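 further: score merges 667 nm fluorescence with signal-to-noise of each printed compound spot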
- assay_conditions: higher = more signal

| molecule | composite z-score |
| --- | --- |
| Cc1cc2c(c(=O)o1)[C@@H](O)[C@H]1O[C@H]1C2=O | 0.163 |
| O=C1CCCC=C1C(CCc1ccccc1)OC(=O)c1ccc(Br)cc1 (stereo unspecified) | -0.205 |
| CCOC(=O)[C@H](CC(C)C)NC(=O)CCC1CC(OC(=O)NCc2cccc3ccccc23)CC2(CCCC(COC(=O)NCCOC)O2)O1 (stereo partly specified) | 0.754 |
| CCOC(=O)NN=C1C[C@@H](O)[C@@H](O)[C@@H]2[C@@H]3C(=O)N([C@@H](C)c4ccccc4)C(=O)[C@@H]3CC[C@H]12 | 0.252 |
| CCOC(=O)[C@H](CC(C)C)NC(=O)CCC1CC(OC(=O)NCCc2ccc(F)cc2)CC2(CCCC(COC(=O)NCCOc3ccccc3)O2)O1 (stereo partly specified) | 0.283 |
| COC(=O)CC=C[C@H](C)[C@@H](OCc1cccc(Br)c1)[C@@H](C)[C@H](OC)C1CCCCC1 | -0.118 |
| O=C1[C@H]2[C@H]3[C@H](O)[C@H](O)CC(=NOCc4ccccc4)[C@H]3CC[C@H]2C(=O)N1Cc1ccc2c(c1)OCO2 | 0.0418 |
| CCO[C@H](c1cc(OC)cc([N+](=O)[O-])c1OC)[C@H](C)C=CCC(=O)OC | -0.185 |
| CCCNC(=O)OC[C@H]1O[C@H](CCON=C(C)CCN2CCc3nc(CC)c(CC)cc3C2)C=C[C@@H]1Oc1ccc(OC)cc1 | -0.0665 |
| CON=C[C@@H](NS(=O)(=O)c1ccc(C)cc1)[C@H](C)C=CCC(=O)OC | -0.371 |
| O=C1C[C@@H](O)[C@@H](O)[C@@H]2[C@@H]3C(=O)N(c4cccc(Oc5ccccc5)c4)C(=O)[C@@H]3CC[C@H]12 | 0.167 |

Data origin, for the record: PubChem BioAssay
